- assay-system: human CB1 receptor (Homo sapiens, UniProt P21554)
- Construct: expressed in transfected cells; host or cells: HEK293
- Sequence (P21554 whole entry): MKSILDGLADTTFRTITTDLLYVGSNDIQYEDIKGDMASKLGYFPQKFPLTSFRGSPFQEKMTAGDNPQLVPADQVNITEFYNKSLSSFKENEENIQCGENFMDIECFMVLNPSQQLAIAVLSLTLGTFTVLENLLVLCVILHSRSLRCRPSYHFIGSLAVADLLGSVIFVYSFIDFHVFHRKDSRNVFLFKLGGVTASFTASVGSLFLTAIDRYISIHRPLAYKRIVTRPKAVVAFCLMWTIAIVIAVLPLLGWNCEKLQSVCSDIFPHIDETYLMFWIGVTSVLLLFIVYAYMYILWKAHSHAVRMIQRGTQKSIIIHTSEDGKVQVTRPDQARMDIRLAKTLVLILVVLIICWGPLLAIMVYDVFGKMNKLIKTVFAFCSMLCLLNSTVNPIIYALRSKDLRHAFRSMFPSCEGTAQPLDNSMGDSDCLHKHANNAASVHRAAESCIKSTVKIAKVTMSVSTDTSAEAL
- method-notes: bioSensAll β-arrestin plasma membrane (PM) translocation BRET biosensor (+GRK2) assay in transfected HEK293 cells, inhibition of CP-55,940 response
- Assay type: cell-based
- condition-set: HEK293 cells transfected with hCB1 and β-arrestin PM translocation biosensor (+GRK2), test compound then EC75 of CP-55,940 (100 nM), overnight incubation, read-out: CB1 wt βarr2 EC50
- Protocol: Using polyethylenimine (PEI) transfection agent, HEK293 cells were transfected in suspension with the human CB1 or CB1 b receptor and one of the following bioSensAll® assays: GAPL-Gi2, or β-arrestin plasma membrane (PM) translocation biosensor (+GRK2). Cells were directly seeded in 96-well plates immediately following transfection. Cells were incubated with coelenterazine (luciferase substrate) and different test compounds prior to the measurement of BRET signals. […]
readout-name: EC50 (nM)
Respond numerically; units are nM and should not be typed.

Example results:
CC(=O)NC(=N)/N=C(/NS(=O)(=O)c1ccc(C(F)(F)F)cn1)N1CCC(c2ccccc2)C(c2ccc(Cl)cc2)=N1 (single isomer, unassigned) [Compound 8 Isomer 2] | 8.5
CC(=O)N/C(N)=N\C(=N\S(=O)(=O)c1ccc(C(F)(F)F)cc1)N1CCC(c2ccccc2)C(c2ccc(Cl)cc2)=N1 (single isomer, unassigned) [Compound 7 Isomer 2] | 2.1
CC(=O)NC(N)=NC(=NS(=O)(=O)c1ccc(Cl)cc1)N1CCC(c2ccccc2)C(c2ccc(Cl)cc2)=N1 (single isomer, unassigned) [Compound 1 Isomer 2] | 3.3

# context switch: different compound, same EC50
Lookup: Look up EC50 for this compound: CC(=O)N/C(N)=N/C(=N/S(=O)(=O)N1CCCCC1)N1CCC(c2ccccc2)C(c2ccc(Cl)cc2)=N1 (single isomer, unassigned) [Compound 2 Isomer 2]
Found: 1.5
